Molecular target: P-gp (MDR1 expressing LLC-PK1 cells) (Homo sapiens, UniProt P08183)
Construct: host or cells: LLC-PK1
Sequence (P08183 whole entry): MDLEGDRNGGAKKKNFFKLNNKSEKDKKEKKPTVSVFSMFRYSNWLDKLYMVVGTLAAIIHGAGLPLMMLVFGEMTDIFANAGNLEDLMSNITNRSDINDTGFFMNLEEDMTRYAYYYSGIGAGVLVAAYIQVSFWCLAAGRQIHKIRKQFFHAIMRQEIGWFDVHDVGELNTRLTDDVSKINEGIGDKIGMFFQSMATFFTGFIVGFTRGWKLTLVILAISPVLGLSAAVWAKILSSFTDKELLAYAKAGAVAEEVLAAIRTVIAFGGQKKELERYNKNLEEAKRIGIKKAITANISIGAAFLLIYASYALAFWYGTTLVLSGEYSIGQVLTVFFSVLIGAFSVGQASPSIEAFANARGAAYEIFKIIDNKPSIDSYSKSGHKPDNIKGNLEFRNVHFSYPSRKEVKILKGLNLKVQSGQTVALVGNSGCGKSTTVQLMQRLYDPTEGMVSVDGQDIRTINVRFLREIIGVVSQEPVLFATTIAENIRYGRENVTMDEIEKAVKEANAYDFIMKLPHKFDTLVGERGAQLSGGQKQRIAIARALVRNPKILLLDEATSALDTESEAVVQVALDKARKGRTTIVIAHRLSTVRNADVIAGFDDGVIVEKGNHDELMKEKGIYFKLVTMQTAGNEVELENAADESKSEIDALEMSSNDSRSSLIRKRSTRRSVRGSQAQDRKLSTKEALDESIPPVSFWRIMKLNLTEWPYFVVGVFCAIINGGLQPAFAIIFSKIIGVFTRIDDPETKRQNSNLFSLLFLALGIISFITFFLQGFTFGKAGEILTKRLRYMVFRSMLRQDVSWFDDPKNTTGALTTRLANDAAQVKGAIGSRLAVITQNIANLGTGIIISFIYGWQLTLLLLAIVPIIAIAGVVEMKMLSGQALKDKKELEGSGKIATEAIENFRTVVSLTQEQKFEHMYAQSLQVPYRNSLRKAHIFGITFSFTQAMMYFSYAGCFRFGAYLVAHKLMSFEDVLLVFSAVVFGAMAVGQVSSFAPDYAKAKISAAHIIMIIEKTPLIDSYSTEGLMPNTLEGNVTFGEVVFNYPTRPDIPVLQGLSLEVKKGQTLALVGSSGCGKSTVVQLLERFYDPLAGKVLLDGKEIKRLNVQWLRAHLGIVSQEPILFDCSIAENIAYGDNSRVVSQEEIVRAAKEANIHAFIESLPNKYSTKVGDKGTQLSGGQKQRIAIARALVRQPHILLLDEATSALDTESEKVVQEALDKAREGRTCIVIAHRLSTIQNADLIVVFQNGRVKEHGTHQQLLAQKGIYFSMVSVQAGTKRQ
Experiment: P-gp substrate test
Format: in vitro ADME
Conditions: net flux = Efflux Ratio in MDR1 expressing cells / Efflux Ratio in parent LLC-PK1 cells
value_kind: ER ratio (Cell: MDR1/LLC-PK1)
Lab note: write the figure by itself, no unit.

Solved entries:
query_smiles=COc1ccc(C(=O)Nc2ccc(F)c([C@@]3(C)N=C(N)SCC34CC(F)(F)C4)c2)nc1 value_reported=0.6
query_smiles=C[C@H]1SC(N)=N[C@](C)(c2cc(NC(=O)c3cnc(OC(F)F)cn3)ccc2F)[C@H]1F value_reported=1.3
query_smiles=C[C@H]1SC(N)=N[C@](C)(c2cc(NC(=O)c3ccc(F)cn3)ccc2F)[C@H]1F value_reported=1.1

Let's switch to this compound now.
Tell me reported ER ratio (Cell: MDR1/LLC-PK1) for C[C@]1(c2cc(NC(=O)c3ccc(C#N)cn3)ccc2F)N=C(N)O[C@H](C2(F)CC2)[C@@H]1F , tested with P-gp (MDR1 expressing LLC-PK1 cells) (Homo sapiens, UniProt P08183). 2.0

----------
Test: Solubility test
Type: physicochemical
Details: JP 2nd fluid B, pH 6.8, aqueous buffer, kinetic from dmso stock; read-out: JP2_μM
Here the recorded solubility kinetic at 1 h is given for each entry.

query_smiles=[2H]C([2H])([2H])Oc1cnc(C(=O)Nc2ccc(F)c([C@@]3(C)N=C(N)S[C@H](C)[C@@H]3F)c2)cn1 value_reported="> 50 µM"
query_smiles=Cc1cc(C#N)cnc1C(=O)Nc1cccc([C@@]2(C)N=C(N)S[C@H](C)[C@@H]2F)c1 value_reported="> 50 µM"

Next item in the queue.
What solubility kinetic at 1 h value was documented for this compound, C[C@H]1SC(N)=N[C@](C)(c2cc(NC(=O)c3ncc(C#N)cc3F)ccc2F)[C@H]1F ? > 50 µM

----------
Known solubility kinetic at 1 h of a selection of compounds
Assay: Solubility test
Format: physicochemical
Conditions: JP 2nd fluid B, pH 6.8, aqueous buffer, kinetic from dmso stock; read-out: JP2_μM

Examples with answers:
query_smiles=C[C@]1(c2cc(NC(=O)c3ccc(C#N)cn3)ccc2F)N=C(N)O[C@H](C2(F)CC2)[C@@H]1F value_reported="> 50 µM"
query_smiles=C[C@H]1SC(N)=N[C@](C)(c2cccc(NC(=O)c3cnc(C(F)F)cn3)c2)[C@H]1F value_reported="> 50 µM"

Consider the record given below.
Entry COc1cnc(C(=O)Nc2cccc([C@@]3(C)N=C(N)S[C@H](C)[C@@H]3F)c2)cn1 : reported solubility kinetic at 1 h = ? > 50 µM

----------
Recorded Kp at 2 h by entry
Target: P-gp (Mus musculus)
Construct: from tissue; host or cells: living mice (brain/plasma distribution), wild type versus mdr1a (−/−)
Sequence (P21447 whole entry): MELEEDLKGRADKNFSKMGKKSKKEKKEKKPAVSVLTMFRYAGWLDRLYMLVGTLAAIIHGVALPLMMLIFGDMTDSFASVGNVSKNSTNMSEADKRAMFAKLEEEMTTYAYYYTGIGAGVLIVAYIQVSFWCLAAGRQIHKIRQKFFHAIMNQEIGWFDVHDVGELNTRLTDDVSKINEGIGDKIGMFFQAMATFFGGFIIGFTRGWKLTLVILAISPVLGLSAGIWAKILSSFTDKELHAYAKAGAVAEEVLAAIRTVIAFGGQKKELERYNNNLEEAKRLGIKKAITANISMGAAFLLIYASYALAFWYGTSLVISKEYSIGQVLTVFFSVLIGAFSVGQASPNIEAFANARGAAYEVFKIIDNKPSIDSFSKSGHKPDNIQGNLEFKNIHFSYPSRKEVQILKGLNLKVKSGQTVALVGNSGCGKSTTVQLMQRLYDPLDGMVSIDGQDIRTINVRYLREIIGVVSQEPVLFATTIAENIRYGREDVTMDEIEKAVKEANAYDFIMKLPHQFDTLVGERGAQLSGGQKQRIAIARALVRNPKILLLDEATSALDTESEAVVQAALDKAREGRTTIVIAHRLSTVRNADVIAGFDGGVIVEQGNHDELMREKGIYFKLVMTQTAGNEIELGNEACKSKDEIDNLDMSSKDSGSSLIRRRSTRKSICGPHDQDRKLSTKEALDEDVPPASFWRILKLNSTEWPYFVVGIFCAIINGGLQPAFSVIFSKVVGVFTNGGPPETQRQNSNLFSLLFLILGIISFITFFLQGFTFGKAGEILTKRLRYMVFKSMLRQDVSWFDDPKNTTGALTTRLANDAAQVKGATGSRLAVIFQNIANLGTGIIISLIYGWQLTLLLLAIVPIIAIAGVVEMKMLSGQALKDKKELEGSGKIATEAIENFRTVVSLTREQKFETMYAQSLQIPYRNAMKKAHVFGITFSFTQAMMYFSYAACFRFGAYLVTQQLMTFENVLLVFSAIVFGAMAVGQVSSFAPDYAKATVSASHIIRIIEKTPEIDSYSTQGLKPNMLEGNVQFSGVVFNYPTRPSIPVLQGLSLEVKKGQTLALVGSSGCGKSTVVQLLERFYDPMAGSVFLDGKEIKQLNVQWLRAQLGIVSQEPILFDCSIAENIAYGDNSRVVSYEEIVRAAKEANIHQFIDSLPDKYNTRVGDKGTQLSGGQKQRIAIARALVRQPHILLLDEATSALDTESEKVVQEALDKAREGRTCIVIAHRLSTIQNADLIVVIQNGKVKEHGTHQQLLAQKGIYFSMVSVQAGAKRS
Assay: P-gp substrate test using mdr1a (−/−) B6 mice
Type: in vivo
Settings: mdr1a (−/−) B6 (KO) and C57BL/6J (wild), mouse, brain / plasma, po, 2 mg/kg, Kp in KO mouse (mdr1a (−/−) B6) / Kp in Wild mouse, read-out: Kp ratio (2 mg/kg, po, 2 hr)
Lab note: record the figure alone, no unit after it.

query_smiles=C[C@H]1SC(N)=N[C@](C)(c2cc(NC(=O)c3cnc(OC(F)F)cn3)ccc2F)[C@H]1F value_kind="Kp at 2 h" value_reported=2.12
query_smiles=C[C@@]1(c2cc(NC(=O)c3ccc(C#N)cn3)ccc2F)C[C@@](C)(C(F)(F)F)OC(N)=N1 value_kind="Kp at 2 h" value_reported=4.21

Now for a further compound.
Identify the measured Kp at 2 h of COc1cnc(C(=O)Nc2ccc(F)c([C@@]3(C)N=C(N)S[C@H](C)[C@@H]3F)c2)cn1 for P-gp (Mus musculus). 2.22

----------
Biological target: CYP2C9 (Homo sapiens, UniProt P11712)
Sequence (P11712 whole entry): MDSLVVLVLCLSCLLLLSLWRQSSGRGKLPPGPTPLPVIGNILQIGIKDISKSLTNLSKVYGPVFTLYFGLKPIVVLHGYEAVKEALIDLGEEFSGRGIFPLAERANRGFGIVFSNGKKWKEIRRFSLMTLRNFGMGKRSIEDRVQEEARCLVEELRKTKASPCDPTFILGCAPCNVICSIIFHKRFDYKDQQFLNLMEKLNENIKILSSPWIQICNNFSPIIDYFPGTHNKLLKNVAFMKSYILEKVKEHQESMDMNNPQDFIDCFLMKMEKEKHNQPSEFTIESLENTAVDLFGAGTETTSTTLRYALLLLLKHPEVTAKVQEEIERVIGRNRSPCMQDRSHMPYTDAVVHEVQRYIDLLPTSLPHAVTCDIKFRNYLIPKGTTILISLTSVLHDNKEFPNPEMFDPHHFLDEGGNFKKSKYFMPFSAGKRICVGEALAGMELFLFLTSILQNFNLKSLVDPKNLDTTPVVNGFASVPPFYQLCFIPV
Parameter IC50: see the listing below.

Solved cases (5 shown):
query_smiles=CO[C@H]1[C@@H](CF)OC(N)=N[C@]1(C)c1cc(NC(=O)c2ncc(Cl)cc2Cl)ccc1Cl value_reported="≥ 20 µM"
query_smiles=Cc1cc(C#N)cnc1C(=O)Nc1cccc([C@@]2(C)N=C(N)S[C@H](C)[C@@H]2F)c1 value_reported="≥ 20 µM"
query_smiles=C[C@@H]1[C@@H](C(F)(F)F)OC(N)=N[C@]1(C)c1cc(NC(=O)c2ccc(C#N)cn2)ccc1F value_reported="≥ 20 µM"
query_smiles=COCC(F)(F)[C@H]1OC(N)=N[C@](C)(c2cc(NC(=O)c3ccc(C#N)cn3)ccc2F)[C@H]1F value_reported="≥ 20 µM"
query_smiles=CO[C@H]1[C@@H](C(F)(F)F)OC(N)=N[C@]1(C)c1cc(NC(=O)c2ccc(C#N)cn2)ccc1F value_reported="≥ 20 µM"

Suppose we examine the compound C[C@]1(c2cc(NC(=O)c3cnc(OCF)cn3)ccc2F)N=C(N)OCC12CC(F)(F)C2 ; what IC50 value has been reported? ≥ 20 µM

So what does the record say about IC50 for C[C@]1(c2cc(NC(=O)c3cnc(OCF)cn3)ccc2F)N=C(N)O[C@H](CF)[C@@H]1OCC(F)(F)F ? ≥ 20 µM

Need IC50, item COc1cnc(C(=O)Nc2cccc([C@@]3(C)N=C(N)S[C@H](C)[C@@H]3F)c2)cn1 ≥ 10 µM

Please look up its IC50: COCC(F)(F)[C@H]1OC(N)=N[C@](C)(c2cc(NC(=O)c3cnc(OC)cn3)ccc2F)[C@H]1F ≥ 10 µM

Query: IC50; subject: Cc1cc(C#N)cnc1C(=O)Nc1ccc(F)c([C@@]2(C)N=C(N)O[C@H](C3(F)CC3)[C@@H]2F)c1 ≥ 10 µM

----------
Target: human ether-a-go-go related gene (hERG) channel (Homo sapiens, UniProt Q12809)
Construct: expressed in transfected cells; host or cells: CHO cells
Sequence (Q12809 whole entry): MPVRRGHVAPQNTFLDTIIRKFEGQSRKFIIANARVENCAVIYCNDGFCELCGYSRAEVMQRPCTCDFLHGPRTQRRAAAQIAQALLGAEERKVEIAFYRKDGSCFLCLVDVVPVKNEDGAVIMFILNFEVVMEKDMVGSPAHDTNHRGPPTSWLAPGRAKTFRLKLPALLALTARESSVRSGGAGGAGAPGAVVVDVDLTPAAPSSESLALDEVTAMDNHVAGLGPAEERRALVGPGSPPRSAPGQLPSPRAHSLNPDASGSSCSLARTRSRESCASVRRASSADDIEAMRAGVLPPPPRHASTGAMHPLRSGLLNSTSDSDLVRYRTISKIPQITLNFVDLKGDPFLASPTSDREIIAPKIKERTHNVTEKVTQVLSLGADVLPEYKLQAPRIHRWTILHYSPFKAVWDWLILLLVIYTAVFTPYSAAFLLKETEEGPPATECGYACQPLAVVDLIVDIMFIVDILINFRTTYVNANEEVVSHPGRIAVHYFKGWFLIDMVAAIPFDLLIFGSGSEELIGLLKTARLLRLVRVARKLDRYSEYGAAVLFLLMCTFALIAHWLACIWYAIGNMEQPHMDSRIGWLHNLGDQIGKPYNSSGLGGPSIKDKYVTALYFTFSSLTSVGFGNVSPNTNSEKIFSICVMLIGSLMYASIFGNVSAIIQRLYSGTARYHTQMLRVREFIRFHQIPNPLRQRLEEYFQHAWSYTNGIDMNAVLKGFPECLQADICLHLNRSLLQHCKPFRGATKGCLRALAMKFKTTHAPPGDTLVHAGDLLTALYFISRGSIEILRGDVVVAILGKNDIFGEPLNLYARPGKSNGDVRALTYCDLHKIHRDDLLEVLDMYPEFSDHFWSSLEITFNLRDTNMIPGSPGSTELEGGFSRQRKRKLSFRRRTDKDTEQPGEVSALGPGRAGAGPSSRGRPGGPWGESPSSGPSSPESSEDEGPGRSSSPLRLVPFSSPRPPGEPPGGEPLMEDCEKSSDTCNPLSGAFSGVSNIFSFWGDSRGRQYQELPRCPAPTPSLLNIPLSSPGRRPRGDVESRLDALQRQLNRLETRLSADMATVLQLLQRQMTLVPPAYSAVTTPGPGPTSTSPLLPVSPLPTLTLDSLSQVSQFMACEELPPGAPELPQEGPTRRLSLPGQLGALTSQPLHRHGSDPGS
Experiment: hERG test
Assay type: cell-based
Details: % inhibition of IKr tail peak current at 3 uM; CHO cells expressing hERG
Respond with criterion met for hERG_3 uM_% values of 50% and above, criterion not met for values below.

compound="CO[C@H]1[C@@H](CF)OC(N)=N[C@]1(C)c1cc(NC(=O)c2cnc(OCF)cn2)ccc1F [Compound I-24]" assigned_label="criterion not met"
compound="C[C@]1(c2cc(NC(=O)c3ccc(F)cn3)ccc2F)N=C(N)OCC12CC(F)(F)C2 [Compound I-45]" assigned_label="criterion met"

# check: hERG_3 uM_% of COc1ccc(C(=O)Nc2ccc(F)c([C@@]3(C)N=C(N)S[C@H](C)[C@@H]3F)c2)nn1 [Compound I-108] is greater than or equal to 50% criterion not met

hey, is hERG_3 uM_% for this one >= 50%? C[C@H]1SC(N)=N[C@](C)(c2cc(NC(=O)c3ccc(F)cn3)ccc2F)[C@H]1F [Compound I-116] criterion not met

Reported hERG_3 uM_% reaches at least 50% for C[C@]1(c2cc(NC(=O)c3ccc(F)cn3)ccc2F)N=C(N)O[C@H](CF)[C@@H]1OCC(F)(F)F [Compound I-11] ? criterion not met

----------
The compounds below have reported IC50 for CYP2C9 (Homo sapiens).

Sample answers from the record:
query_smiles=C[C@]1(c2cc(NC(=O)c3ccc(C#N)cn3)ccc2F)N=C(N)SCC12CC(F)(F)C2 system_under_test="CYP2C9 (Homo sapiens)" value_kind=IC50 value_reported="≥ 20 µM"
query_smiles=CO[C@H]1[C@@H](CF)OC(N)=N[C@]1(C)c1cc(NC(=O)c2ncc(Cl)cc2Cl)ccc1F system_under_test="CYP2C9 (Homo sapiens)" value_kind=IC50 value_reported="≥ 20 µM"
query_smiles=C[C@H]1[C@@H](C(F)F)OC(N)=N[C@]1(C)c1cc(NC(=O)c2cnc(OCF)cn2)ccc1F system_under_test="CYP2C9 (Homo sapiens)" value_kind=IC50 value_reported="≥ 20 µM"
query_smiles=Cc1cc(C#N)cnc1C(=O)Nc1ccc(F)c([C@@]2(C)N=C(N)SCC23CC(F)(F)C3)c1 system_under_test="CYP2C9 (Homo sapiens)" value_kind=IC50 value_reported="≥ 20 µM"
query_smiles=C[C@H]1SC(N)=N[C@](C)(c2cc(NC(=O)c3ncc(C#N)cc3F)ccc2F)[C@H]1F system_under_test="CYP2C9 (Homo sapiens)" value_kind=IC50 value_reported="≥ 10 µM"
query_smiles=C[C@]1(c2cc(NC(=O)c3ccc(C#N)cn3)ccc2F)N=C(N)O[C@H](C(F)(F)C2CC2)[C@@H]1F system_under_test="CYP2C9 (Homo sapiens)" value_kind=IC50 value_reported="≥ 10 µM"
query_smiles=CO[C@H]1[C@@H](CF)OC(N)=N[C@]1(C)c1cc(NC(=O)c2ccc(Cl)cn2)ccc1Cl system_under_test="CYP2C9 (Homo sapiens)" value_kind=IC50 value_reported="≥ 20 µM"
query_smiles=C[C@H]1SC(N)=N[C@](C)(c2nc(NC(=O)c3ccc(C#N)cn3)ccc2F)[C@H]1F system_under_test="CYP2C9 (Homo sapiens)" value_kind=IC50 value_reported="≥ 20 µM"
query_smiles=COc1cnc(C(=O)Nc2ccc(F)c([C@@]3(C)N=C(N)O[C@H]([C@@H](C)F)[C@@H]3F)c2)cn1 system_under_test="CYP2C9 (Homo sapiens)" value_kind=IC50 value_reported="≥ 20 µM"
query_smiles=COc1cnc(C(=O)Nc2ccc(F)c([C@@]3(C)N=C(N)O[C@H]([C@H](C)F)[C@@H]3F)c2)cn1 system_under_test="CYP2C9 (Homo sapiens)" value_kind=IC50 value_reported="≥ 20 µM"

Consider the compound C[C@H]1[C@@H](C(F)(F)F)OC(N)=N[C@]1(C)c1cc(NC(=O)c2ccc(C#N)cn2)ccc1F and give its measured IC50. ≥ 20 µM

Report IC50 for [2H]C([2H])([2H])Oc1cnc(C(=O)Nc2cccc([C@@]3(C)N=C(N)S[C@H](C)[C@@H]3F)c2)cn1 please. ≥ 10 µM

# get_value(readout='IC50', item= COc1cnc(C(=O)Nc2ccc(F)c([C@@]3(C)N=C(N)O[C@H](C(F)F)[C@@H]3C)c2)cn1 ) ≥ 20 µM
